Experiment: Compound at the dose 10 mg/kg administered intraperitoneally was evaluated for the excretion rate in rats in 7 days through feces
Type: ADME, organism-based
Design: dose 10 mg/kg, route intraperitoneal
Conditions: rat, faeces, ip, read-out: Excretion
MEASUREMENT_KIND: dose excreted at 168 h (%)
Output spec: scalar in %, unitless text.

Req: May I ask what dose excreted at 168 h has been recorded for O=C1NC(=O)C(c2ccc(C(F)(F)F)cc2)(c2ccc(C(F)(F)F)cc2)N1 ?
Resp: 67

----------
Assay: Compound was evaluated for the biological half life in rats after a dose of 5 mg/kg given intravenous route
Assay type: ADME, organism-based
Set-up: dose 5 mg/kg, route intravenous
Details: rat, in vivo
MEASUREMENT_KIND: half-life (h)
Output spec: scalar in h, unitless text.

Req: May I ask what half-life has been recorded for O=C1NC(=O)C(c2ccc(C(F)(F)F)cc2)(c2ccc(C(F)(F)F)cc2)N1 ?
Resp: 66.7

----------
Assay: Compound was evaluated for the tissue levels after 1 hour of administration of 5 mg/kg through intravenous route, the given data is tissue/plasma ratios lungs
Assay type: ADME, organism-based
Set-up: dose 5 mg/kg, route intravenous
MEASUREMENT_KIND: Kp at 1 h
Lab note: jot the number down without any unit.

Req: May I ask what Kp at 1 h has been recorded for O=C1NC(=O)C(c2ccc(C(F)(F)F)cc2)(c2ccc(C(F)(F)F)cc2)N1 ?
Resp: 0.62

----------
Experiment: Compound was evaluated for the Brain levels at 24 h in the Swiss webster mouse when administered at the […]
Format: ADME, organism-based
Details: read-out: Plasma level
MEASUREMENT_KIND: concentration at 24 h (ng/mL)
Output spec: scalar in ng/mL, unitless text.

Req: May I ask what concentration at 24 h has been recorded for O=C1NC(=O)C(c2ccc(C(F)(F)F)cc2)(c2ccc(C(F)(F)F)cc2)N1 ?
Resp: 3500

----------
Assay: Compound was evaluated for the biological half-life in rat after a dose of 10 mg/kg given intravenously
Format: ADME, organism-based
Design: dose 10 mg/kg, route intravenous
Conditions: in vivo, iv
MEASUREMENT_KIND: half-life

Req: May I ask what half-life has been recorded for O=C1NC(=O)C(c2ccccc2)(c2ccccc2)N1 ?
Resp: 30 min

----------
Test: Compound was evaluated for the tissue levels after 1 hour of administration of 5 mg/kg through intravenous route, the given data is tissue/plasma ratios gastrointestinal tract
Format: ADME, organism-based
Set-up: dose 5 mg/kg, route intravenous
MEASUREMENT_KIND: Kp at 1 h
Lab note: jot the number down without any unit.

Req: May I ask what Kp at 1 h has been recorded for O=C1NC(=O)C(c2ccc(C(F)(F)F)cc2)(c2ccc(C(F)(F)F)cc2)N1 ?
Resp: 0.48

----------
Assay: Compound was evaluated for the cumulative excretion rate in rats at the dose 10 mg/kg, intraperitoneally for 18 days through urine
Assay type: ADME, organism-based
Set-up: dose 10 mg/kg, route intraperitoneal
Conditions: rat, ip, read-out: Excretion
MEASUREMENT_KIND: dose excreted at 432 h (%)
Output spec: scalar in %, unitless text.

Req: May I ask what dose excreted at 432 h has been recorded for O=C1NC(=O)C(c2ccc(C(F)(F)F)cc2)(c2ccc(C(F)(F)F)cc2)N1 ?
Resp: 0.25

----------
Experiment: Compound was evaluated for the cumulative excretion rate in rats at the dose 10 mg/kg, intraperitoneally for 18 days through feces
Format: ADME, organism-based
Parameters: dose 10 mg/kg, route intraperitoneal
Conditions: rat, faeces, ip, read-out: Excretion
MEASUREMENT_KIND: dose excreted at 432 h (%)
Output spec: scalar in %, unitless text.

Req: May I ask what dose excreted at 432 h has been recorded for O=C1NC(=O)C(c2ccc(C(F)(F)F)cc2)(c2ccc(C(F)(F)F)cc2)N1 ?
Resp: 94
